Biological target: ZFP SBS#354 (synthetic)
Sequence (chain, as listed by the source): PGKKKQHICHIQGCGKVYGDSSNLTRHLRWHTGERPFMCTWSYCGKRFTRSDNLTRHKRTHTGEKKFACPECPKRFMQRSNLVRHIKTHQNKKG
Experiment: EMSA
Conditions: tags: MBP fusion
pKd: −log10 of the molar value.
endpoint.name: pKd

>>> assay_value("GAAGAGGAC (dsDNA) DNA 1: GAAGAGGAC DNA 2: GTCCTCTTC")
7.55

Origin of measurements: patent US20030068675
